From: patent US10858342B2

Molecular target: cortisol synthase (CYP11B1) (Macaca fascicularis)
Experiment: Inhibition of cortisol synthesis (cynomolgus adrenal mitochondria, cortisol by mass spectrometry)
Type: biochemical, cynomolgus monkey
Settings: read-out: Cortisol Inhibition IC50; 11-deoxycortisol substrate, 150 units CYP11B1
pIC50: −log10 of the molar value.
Please provide measured pIC50 for the entries that follow.

-- ask Under cortisol synthase (CYP11B1) (Macaca fascicularis): pIC50 value of `CNC(=O)[C@H]1CC(=O)c2c(ncn2-c2ccc(C#N)c(Cl)c2)C1` ?
-- reply < 4.52

-- ask Try `CN(C)C(=O)[C@H]1CC(=O)c2c(ncn2-c2ccc(C#N)c(Cl)c2)C1` next.
-- reply < 4.52

-- ask Same read-out for `N#Cc1ccc(-n2cnc3c2C(=O)C[C@H](C(N)=O)C3)cc1Cl` ?
-- reply < 4.52
